# ASSAY: Single-dose pharmacokinetics of Compound I, intravenous 30-minute infusion in Beagle dogs (Example 5)
# Format: in vivo
# CONDITION: Beagle, in vivo, Dog, 6 mg/kg IV
OBSERVATION_TYPE: AUC (µg·h/mL)

>  <COMPOUND_STRUCTURE_STRING>
O=C(O)C[C@@H]1CC[C@H](NC(=O)Cc2cccs2)B(O)O1

>  <OBSERVATION_TYPE>
AUC

>  <RESULT_UNITS>
µg·h/mL

>  <VAL>
18.4

$$$$

----------
# ASSAY: Single-dose pharmacokinetics of Compound I, intravenous 30-minute infusion in Sprague-Dawley rats (Example 5)
# Assay type: in vivo
# CONDITION: Sprague-Dawley, in vivo, Rat, 20 mg/kg IV

>  <MOLECULE>
O=C(O)C[C@@H]1CC[C@H](NC(=O)Cc2cccs2)B(O)O1 [Compound I]

>  <half-life / h>
1.6

$$$$

----------
# ASSAY: in vivo
# Set-up: species or system Swiss-Webster mice
# CONDITION: female, CFW (Swiss-Webster), mouse, ip, 100 mg/kg, Calc. Conc. (plasma concentration)
OBSERVATION_TYPE: concentration at 0.25 h (µg/mL)

>  <MOLECULE>
C[C@@H](O)[C@H]1C(=O)N2C(C(=O)[O-])=C(SC3Cn4cnc[n+]4C3)[C@H](C)[C@H]12 (stereo partly shown) [Biapenem]

>  <OBSERVATION_TYPE>
concentration at 0.25 h

>  <VAL>
68.4

$$$$

----------
# maps each entry to its clearance
# ASSAY: Plasma pharmacokinetics of Compound I and Biapenem alone or in combination after 1.5 hour intravenous infusion in Sprague-Dawley rats (Example 3)
# Format: in vivo
# CONDITION: male, Sprague-Dawley, rat, plasma, iv, 20 mg/kg, Sprague-Dawley rats, 1.5 hour intravenous infusion, 20 mg/kg Compound I in combination with 20 mg/kg Biapenem
OBSERVATION_TYPE: clearance

>  <MOLECULE>
O=C(O)C[C@@H]1CC[C@H](NC(=O)Cc2cccs2)B(O)O1

>  <VAL>
32.5 mL/min/kg

$$$$
>  <MOLECULE>
C[C@@H](O)[C@H]1C(=O)N2C(C(=O)[O-])=C(SC3Cn4cnc[n+]4C3)[C@H](C)[C@H]12 (some centres unmarked)

>  <VAL>
33.8 mL/min/kg

$$$$

----------
# ASSAY: Single-dose pharmacokinetics of Compound I, intravenous 30-minute infusion in Beagle dogs (Example 5)
# Type: in vivo
# CONDITION: Beagle, in vivo, Dog, 2 mg/kg IV

>  <COMPOUND_STRUCTURE_STRING>
O=C(O)C[C@@H]1CC[C@H](NC(=O)Cc2cccs2)B(O)O1

>  <AUC [µg·h/mL]>
6.13

$$$$

----------
# ASSAY: Single-dose pharmacokinetics of Compound I, intravenous 30-minute infusion in Beagle dogs (Example 5)
# Type: in vivo
# CONDITION: Beagle, in vivo, Dog, 2 mg/kg IV

>  <COMPOUND>
O=C(O)C[C@@H]1CC[C@H](NC(=O)Cc2cccs2)B(O)O1 [Compound I]

>  <half-life [min]>
39.6

$$$$

----------
# ASSAY: in vivo
# Design: species or system Swiss-Webster mice
# CONDITION: female, CFW (Swiss-Webster), mouse, ip, 25 mg/kg

>  <MOLECULE>
C[C@@H](O)[C@H]1C(=O)N2C(C(=O)[O-])=C(SC3Cn4cnc[n+]4C3)[C@H](C)[C@H]12 (stereo partly shown)

>  <RESULT_UNITS>
ng/mL

>  <Cmax>
31200

$$$$

// data source = patent US11007206B2
